system: HBV DNA; assay: In vitro anti-HBV activity: replication of HBV DNA in 2.2.15 cells (dot hybridization); assay type: cell-based, Hepatitis B virus (HBV); conditions: selectivity index
Strictly below 6 in DNA replication SI: Yes. Otherwise: No.

Please state whether DNA replication SI is below 6 for CCOC(=O)c1c(C[S+]([O-])c2cccc(C)c2)n(C)c2cc(Br)c(O)c(Cn3ccnc3C)c12 (stereo not drawn)
No

Check if DNA replication SI falls below 6 for CCOC(=O)c1c(C[S+]([O-])c2ccc(F)c(F)c2)n(C)c2cc(Br)c(O)c(Cn3ccnc3C)c12.Cl (stereo not drawn) .
No

State whether 6 exceeds DNA replication SI recorded for CCOC(=O)c1c(C[S+]([O-])c2ccc(F)cc2)n(C)c2cc(Br)c(O)c(Cn3ccnc3)c12 (stereo not drawn) .
Yes

State whether 6 exceeds DNA replication SI recorded for `CCOC(=O)c1c(CS(=O)(=O)Cc2ccc(F)cc2)n(C)c2cc(Br)c(O)c(CN3CCCC3)c12` .
No

Please check: DNA replication SI for `CCOC(=O)c1c(CS(=O)(=O)Cc2ccccc2)n(C)c2cc(Br)c(O)c(CNC(=N)N)c12` , strictly under 6 or not?
Yes

Criterion: DNA replication SI strictly below 6. Is it met by CCOC(=O)c1c(C[S+]([O-])c2ccccc2OC)n(C)c2cc(Br)c(O)c(CNC(=N)N)c12.Cl (stereo not drawn) ?
No

Strictly below 6 in DNA replication SI? `CCOC(=O)c1c(CS(=O)(=O)Cc2ccc(F)cc2)n(C)c2cc(Br)c(O)c(Cn3ccnc3C)c12`
No

For this compound, is DNA replication SI lower than 6? CCOC(=O)c1c(C[S+]([O-])c2ccc(C)cc2)n(C)c2ccc(O)c(Cn3ccnc3C)c12 (stereo not drawn)
Yes

Does this compound meet the criterion DNA replication SI < 6? CCOC(=O)c1c(C[S+]([O-])Cc2cccc(F)c2)n(C)c2cc(Br)c(O)c(CN(C)C)c12 (stereo not drawn)
No

Cited source: patent US7960427B2
